settings: 368.15 K; 101.33 kPa; Liquid; Vibrating tube method
reported_property: mass density (kg/m3)

# compound CCCCCCCC/C=C\CCCCCCCCCC(=O)OC [methyl cis-11-eicosenoate] ; its mass density = 820.7

# compound CC/C=C\C/C=C\C/C=C\CCCCCCCC(=O)OCC [ethyl 9,12,15-octadecatrienoate] ; its mass density = 838

# compound CCCCCCCCCCCCCCCCCCCCCC(=O)OC [methyl docosanoate] ; its mass density = 810.3

# compound CCCCCCCCCCCCCCCCCCCC(=O)OC [methyl eicosanoate] ; its mass density = 810.4

# compound CCCCCCCCCCCCCCCCCCCCCCCC(=O)OC [methyl tetracosanoate] ; its mass density = 810.1

# compound CCCCCCCCCCCCCCCCCCCC(=O)OCC [ethyl eicosanoate] ; its mass density = 806.1

* * *

conditions: 328.15 K; 101.33 kPa; Liquid
reported_property: viscosity (mPa·s)

Worked cases, answers included:
# molecule CCCCCCCCCCCCCCCCCCCC(=O)OCC [ethyl eicosanoate] ; its viscosity = 4.507

# molecule CC/C=C\C/C=C\C/C=C\CCCCCCCC(=O)OC [methyl (Z,Z,Z)-9,12,15-octadecatrienoate] ; its viscosity = 2.303

# molecule CCCCCCCC/C=C\CCCCCCCCCCCC(=O)OC [methyl (Z)-13-docosenoate] ; its viscosity = 4.331

# molecule CC/C=C\C/C=C\C/C=C\CCCCCCCC(=O)OCC [ethyl 9,12,15-octadecatrienoate] ; its viscosity = 2.32

# molecule CCCCCC/C=C\CCCCCCCC(=O)OC [methyl (Z)-9-hexadecenoate] ; its viscosity = 2.03

(I) CCCCC/C=C\C/C=C\CCCCCCCC(=O)OCC [ethyl linoleate]
(II) CCCCCCCCCCCCCCCCCCCC(=O)OC [methyl eicosanoate]
input: Higher viscosity between I and II ? Use the label to indicate which entry you chose.
output: II

* * *

settings: 348.15 K; 101.33 kPa; Liquid; Vibrating tube method
reported_property: mass density (kg/m3)

# molecule CCCCCCCCCCCCCCCCCCCCCCCC(=O)OC [methyl tetracosanoate] ; its mass density = 823.7

# molecule CCCCCCCCCCCCCCCCCCCCCC(=O)OC [methyl docosanoate] ; its mass density = 824.1

# molecule CCCCCCCCCCCCCCCCCCCC(=O)OCC [ethyl eicosanoate] ; its mass density = 820

# molecule CC/C=C\C/C=C\C/C=C\CCCCCCCC(=O)OC [methyl (Z,Z,Z)-9,12,15-octadecatrienoate] ; its mass density = 861.2

# molecule CCCCCCCC/C=C\CCCCCCCCCC(=O)OC [methyl cis-11-eicosenoate] ; its mass density = 834.6

# molecule CC/C=C\C/C=C\C/C=C\CCCCCCCC(=O)OCC [ethyl 9,12,15-octadecatrienoate] ; its mass density = 852.5

# molecule CCCCCCCCCCCCCCCCCCCC(=O)OC [methyl eicosanoate] ; its mass density = 824.3

# molecule CCCCC/C=C\C/C=C\CCCCCCCC(=O)OCC [ethyl linoleate] ; its mass density = 842.4

# molecule CCCCCC/C=C\CCCCCCCC(=O)OC [methyl (Z)-9-hexadecenoate] ; its mass density = 827.3

# molecule CCCCCCCC/C=C\CCCCCCCCCCCC(=O)OC [methyl (Z)-13-docosenoate] ; its mass density = 832

* * *

details: 303.15 K; 101.33 kPa; Liquid; Vibrating tube method
reported_property: mass density (kg/m3)

# compound CC/C=C\C/C=C\C/C=C\CCCCCCCC(=O)OCC [ethyl 9,12,15-octadecatrienoate] ; its mass density = 885.8

# compound CCCCCC/C=C\CCCCCCCC(=O)OC [methyl (Z)-9-hexadecenoate] ; its mass density = 861.4

# compound CC/C=C\C/C=C\C/C=C\CCCCCCCC(=O)OC [methyl (Z,Z,Z)-9,12,15-octadecatrienoate] ; its mass density = 894.5

# compound CCCCCCCC/C=C\CCCCCCCCCCCC(=O)OC [methyl (Z)-13-docosenoate] ; its mass density = 863.6

# compound CCCCCCCC/C=C\CCCCCCCCCC(=O)OC [methyl cis-11-eicosenoate] ; its mass density = 866.6

# compound CCCCC/C=C\C/C=C\CCCCCCCC(=O)OCC [ethyl linoleate] ; its mass density = 875.2

* * *

settings: 348.15 K; 101.33 kPa; Liquid
reported_property: viscosity (mPa·s)

# compound CCCCCCCCCCCCCCCCCCCC(=O)OCC [ethyl eicosanoate] ; its viscosity = 3.046

# compound CCCCCCCCCCCCCCCCCCCC(=O)OC [methyl eicosanoate] ; its viscosity = 2.918

# compound CCCCC/C=C\C/C=C\CCCCCCCC(=O)OCC [ethyl linoleate] ; its viscosity = 1.927

# compound CCCCCCCC/C=C\CCCCCCCCCCCC(=O)OC [methyl (Z)-13-docosenoate] ; its viscosity = 2.961

# compound CC/C=C\C/C=C\C/C=C\CCCCCCCC(=O)OCC [ethyl 9,12,15-octadecatrienoate] ; its viscosity = 1.745

# compound CCCCCCCCCCCCCCCCCCCCCC(=O)OC [methyl docosanoate] ; its viscosity = 3.513

# compound CC/C=C\C/C=C\C/C=C\CCCCCCCC(=O)OC [methyl (Z,Z,Z)-9,12,15-octadecatrienoate] ; its viscosity = 1.688

(I) CCCCCCCC/C=C\CCCCCCCCCC(=O)OC [methyl cis-11-eicosenoate]
(II) CCCCCC/C=C\CCCCCCCC(=O)OC [methyl (Z)-9-hexadecenoate]
(III) CCCCCCCCCCCCCCCCCCCCCCCC(=O)OC [methyl tetracosanoate]
input: List these items ordered by viscosity, big to small. Write the labels in rank order as requested.
output: III, I, II

* * *

details: 353.15 K; 101.33 kPa; Liquid
reported_property: viscosity (mPa·s)

Worked cases, answers included:
# compound CC/C=C\C/C=C\C/C=C\CCCCCCCC(=O)OC [methyl (Z,Z,Z)-9,12,15-octadecatrienoate] ; its viscosity = 1.583

# compound CCCCCCCC/C=C\CCCCCCCCCC(=O)OC [methyl cis-11-eicosenoate] ; its viscosity = 2.348

# compound CCCCCCCCCCCCCCCCCCCCCC(=O)OC [methyl docosanoate] ; its viscosity = 3.207

# compound CC/C=C\C/C=C\C/C=C\CCCCCCCC(=O)OCC [ethyl 9,12,15-octadecatrienoate] ; its viscosity = 1.636

# compound CCCCCC/C=C\CCCCCCCC(=O)OC [methyl (Z)-9-hexadecenoate] ; its viscosity = 1.366

(1) CCCCCCCCCCCCCCCCCCCCCCCC(=O)OC [methyl tetracosanoate]
(2) CCCCC/C=C\C/C=C\CCCCCCCC(=O)OCC [ethyl linoleate]
input: Just tell me: smaller viscosity value, 1 or 2 ? Use the label to indicate which entry you chose.
output: 2

* * *

conditions: 333.15 K; 101.33 kPa; Liquid
reported_property: viscosity (mPa·s)

# molecule CCCCCCCCCCCCCCCCCCCCCC(=O)OC [methyl docosanoate] ; its viscosity = 4.749

# molecule CCCCC/C=C\C/C=C\CCCCCCCC(=O)OCC [ethyl linoleate] ; its viscosity = 2.429

# molecule CCCCCCCCCCCCCCCCCCCC(=O)OCC [ethyl eicosanoate] ; its viscosity = 4.058

# molecule CCCCCCCC/C=C\CCCCCCCCCCCC(=O)OC [methyl (Z)-13-docosenoate] ; its viscosity = 3.91

# molecule CCCCCC/C=C\CCCCCCCC(=O)OC [methyl (Z)-9-hexadecenoate] ; its viscosity = 1.87

(A) CCCCCCCC/C=C\CCCCCCCCCC(=O)OC [methyl cis-11-eicosenoate]
(B) CC/C=C\C/C=C\C/C=C\CCCCCCCC(=O)OC [methyl (Z,Z,Z)-9,12,15-octadecatrienoate]
input: Just tell me: smaller viscosity value, A or B ? Use the label to indicate which entry you chose.
output: B
(B: 2.123 mPa·s, A: 3.323 mPa·s)

(1) CC/C=C\C/C=C\C/C=C\CCCCCCCC(=O)OCC [ethyl 9,12,15-octadecatrienoate]
(2) CCCCCCCCCCCCCCCCCCCC(=O)OC [methyl eicosanoate]
input: Just tell me: smaller viscosity value, 1 or 2 ? Use the label to indicate which entry you chose.
output: 1

* * *

conditions: 333.15 K; 101.33 kPa; Liquid; Vibrating tube method
reported_property: mass density (kg/m3)

# molecule CCCCCCCCCCCCCCCCCCCCCC(=O)OC [methyl docosanoate] ; its mass density = 834.5

# molecule CC/C=C\C/C=C\C/C=C\CCCCCCCC(=O)OC [methyl (Z,Z,Z)-9,12,15-octadecatrienoate] ; its mass density = 872.3

# molecule CCCCCCCCCCCCCCCCCCCC(=O)OCC [ethyl eicosanoate] ; its mass density = 830.5

# molecule CCCCCC/C=C\CCCCCCCC(=O)OC [methyl (Z)-9-hexadecenoate] ; its mass density = 838.7

# molecule CCCCC/C=C\C/C=C\CCCCCCCC(=O)OCC [ethyl linoleate] ; its mass density = 853.3

* * *

conditions: 318.15 K; 101.33 kPa; Liquid
reported_property: viscosity (mPa·s)

# compound CCCCCC/C=C\CCCCCCCC(=O)OC [methyl (Z)-9-hexadecenoate] ; its viscosity = 2.422

(P) CC/C=C\C/C=C\C/C=C\CCCCCCCC(=O)OCC [ethyl 9,12,15-octadecatrienoate]
(Q) CCCCCCCC/C=C\CCCCCCCCCC(=O)OC [methyl cis-11-eicosenoate]
input: Just tell me: smaller viscosity value, P or Q ? Use the label to indicate which entry you chose.
output: P

The reported numbers originate from the NIST ThermoML archive (doi:10.1021/je1012235).
